We begin with a simple list: items and their reported Activity AC1.3 (AMPKp).
test system: AMP-activated protein kinase (AMPK); test: p-AMPK expression level in L6 cell line by Western blot; format: cell-based; details: L6 cells, 2 hours compound treatment

CC1(C)CC(c2ccc(F)c(Cl)c2)Nc2ccc(C(=O)NS(C)(=O)=O)nc21 (centres unmarked); 0.43 µM
CC1(C)CC(c2cccc(N3CCN(c4ccccc4F)CC3)c2)Nc2c(C(=O)NS(C)(=O)=O)cc(F)cc21 (centres unmarked); 7.73 µM
CC1(C)CC(c2ccc(F)c(Cl)c2)Nc2ccc(C(=O)NS(=O)(=O)C3CC3)nc21 (centres unmarked); 28.9 µM
CC1(C)CC(c2cccnc2)Nc2ccc(C(=O)NS(C)(=O)=O)cc21 (centres unmarked); 7.98 µM

Now take the following compound into account.
Identify the measured Activity AC1.3 (AMPKp) of Cc1ccc(N2CCOCC2)cc1C1CC(C)(C)c2cc(C(=O)NS(C)(=O)=O)ccc2N1 (centres unmarked) for AMP-activated protein kinase (AMPK).
0.02 µM

meta.source: patent US8809369B2
